Biological target: HCV NS3/4A 1b protease R155K (Hepatitis C virus genotype 1b, UniProt Q9WMX2, R1181K)
Construct: 10× stocks of NS3/4A protease enzyme from Bioenza (Mountain View, Calif.)
Assay: HCV protease FRET assay (IC50_APP), Example 16
Details: reaction started immediately after enzyme addition, read-out: Inhibition (apparent IC50, IC50_APP), HCV R155K
Below, each entry is listed with its recorded IC50.

compound	IC50
C=C[C@@H]1C[C@]1(NC(=O)[C@@H]1CC(OC(=O)N2Cc3cccc(F)c3C2)CN1C(=O)C(CN(C)C(=O)/C=C/CN(C)C)NC(=O)OC(C)(C)C)C(=O)NS(=O)(=O)C1CC1 (some centres unmarked)	1000 to 10000 nM

Query: Query (compound): `CC[C@@H]1C[C@]1(NC(=O)[C@@H]1C[C@@H](OC(=O)N2Cc3cccc(F)c3C2)CN1C(=O)[C@H](CC(=O)C=C(C)C)NC(=O)OC(C)(C)C)C(=O)NS(=O)(=O)C1CC1` ; field requested: IC50
Response: 100 to 1000 nM

Query: Query (compound): C=C[C@@H]1C[C@]1(NC(=O)[C@@H]1CC(OC(=O)N2Cc3cccc(F)c3C2)CN1C(=O)[C@H](CC/C=C/C(=O)OC)NC(=O)OC(C)(C)C)C(=O)NS(=O)(=O)C1CC1 (some centres unmarked) ; field requested: IC50
Response: 10 to 100 nM

Query: Query (compound): C=C[C@@H]1C[C@]1(NC(=O)[C@@H]1CC(OC(=O)N2Cc3cccc(F)c3C2)CN1C(=O)[C@H](CCC(=O)/C=C\C(C)(C)C)NC(=O)OC(C)(C)C)C(=O)NS(=O)(=O)C1CC1 (some centres unmarked) ; field requested: IC50
Response: 100 to 1000 nM

* * *

Biological target: HCV NS3/4A 1b protease R155K (Hepatitis C virus genotype 1b, UniProt Q9WMX2, R1181K)
Construct: 10× stocks of NS3/4A protease enzyme from Bioenza (Mountain View, Calif.); purchased Bioenza (Mountain View, Calif.)
Assay: HCV protease FRET assay (IC50_APP), Example 16
Format: biochemical
Conditions: reaction started immediately after enzyme addition, read-out: Inhibition (apparent IC50, IC50_APP), HCV R155K
Below, each entry is listed with its recorded IC50.

Reference set, count: 2
compound	IC50
C=CC(=O)NC[C@@H]1NC(=O)OCC(C)(C)CCCCc2cccc3c2CN(C3)C(=O)O[C@@H]2C[C@@H](C(=O)N[C@]3(C(=O)NS(=O)(=O)C4CC4)C[C@H]3C=C)N(C2)C1=O [Compound I-42]	10 to 100 nM
C=CC(=O)N1C/C=C\[C@@H]2C[C@@]2(C(=O)NS(=O)(=O)C2CC2)NC(=O)[C@@H]2CC(OC(=O)N3Cc4cccc(F)c4C3)CN2C(=O)[C@@H](NC(=O)OC(C)(C)C)CCC1 (stereo partly shown) [Compound I-37]	10 to 100 nM

Query: Query (compound): C=C[C@@H]1C[C@]1(NC(=O)[C@@H]1CC(OC(=O)N2Cc3cccc(F)c3C2)CN1C(=O)[C@@H](C)Nc1ccnc(Cl)n1)C(=O)NS(=O)(=O)C1CC1 (stereo partly shown) [Compound I-49] ; field requested: IC50
Response: 1000 to 10000 nM

Query: Query (compound): CC(C)(C)OC(=O)N[C@H]1CN(S(=O)(=O)c2ccccc2[N+](=O)[O-])CCC/C=C\[C@@H]2C[C@@]2(C(=O)NS(=O)(=O)C2CC2)NC(=O)[C@@H]2CC(OC(=O)N3Cc4cccc(F)c4C3)CN2C1=O (stereo partly shown) [Compound I-45] ; field requested: IC50
Response: < 10 nM

Query: Query (compound): C/C=C/C(=O)OC1CC/C=C\[C@@H]2C[C@@]2(C(=O)NS(=O)(=O)C2CC2)NC(=O)[C@@H]2C[C@@H](OC(=O)N3Cc4cccc(F)c4C3)CN2C(=O)[C@@H](NC(=O)OC(C)(C)C)CC1 (stereo partly shown) [Compound I-66] ; field requested: IC50
Response: < 10 nM

Query: Query (compound): CC(C)(C)OC(=O)N[C@H]1CCCN(S(=O)(=O)c2ccccc2[N+](=O)[O-])C/C=C\[C@@H]2C[C@@]2(C(=O)NS(=O)(=O)C2CC2)NC(=O)[C@@H]2CC(OC(=O)N3Cc4cccc(F)c4C3)CN2C1=O (stereo partly shown) [Compound I-54] ; field requested: IC50
Response: 10 to 100 nM

Query: Query (compound): C/C=C(\C)C(=O)CC[C@H](NC(=O)OC(C)(C)C)C(=O)N1CC(OC(=O)N2Cc3cccc(F)c3C2)C[C@H]1C(=O)N[C@]1(C(=O)NS(=O)(=O)C2CC2)C[C@H]1CC (stereo partly shown) [Compound I-39] ; field requested: IC50
Response: 10 to 100 nM

* * *

Target: HCV NS3/4A 1b protease R155K (Hepatitis C virus genotype 1b, UniProt Q9WMX2, R1181K)
Construct: 10× stocks of NS3/4A protease enzyme from Bioenza (Mountain View, Calif.)
Assay: HCV protease FRET assay (IC50_APP), Example 16
Conditions: reaction started immediately after enzyme addition, read-out: Inhibition (apparent IC50, IC50_APP), HCV R155K
Procedure: The following protocol was used to generate “apparent” IC50 (IC50 APP) values as depicted in Table 6, below. […] Protease reactions were immediately started after enzyme addition with the addition of 45 μL of the FRET substrate and monitored for 60-90 minutes at λex485/λem520 in a Synergy^4 plate reader from BioTek (Winooski, Vt.). […]
pIC50: −log10 of the molar value.
Below, each entry is listed with its recorded pIC50.

molecule	pIC50
CC(C)(C)OC(=O)N[C@H]1CCN(S(=O)(=O)c2ccccc2[N+](=O)[O-])CC/C=C\[C@@H]2C[C@@]2(C(=O)NS(=O)(=O)C2CC2)NC(=O)[C@@H]2CC(OC(=O)N3Cc4cccc(F)c4C3)CN2C1=O (stereo partly drawn) [Compound I-53]	> 8.00
CC(C)(C)OC(=O)N[C@H]1COC(=O)/C=C/C=C\[C@@H]2C[C@@]2(C(=O)NS(=O)(=O)C2CC2)NC(=O)[C@@H]2C[C@@H](OC(=O)N3Cc4cccc(F)c4C3)CN2C1=O [Compound I-65]	7.00 to 8.00

Query: Query (molecule): C=CC(=O)N1CC(C(NC(=O)OC2CCCC2)C(=O)N2CC(OC(=O)N3Cc4cccc(F)c4C3)C[C@H]2C(=O)N[C@]2(C(=O)NS(=O)(=O)C3CC3)C[C@H]2C=C)C1 (stereo partly drawn) [Compound I-51] ; field requested: pIC50
Response: 7.00 to 8.00

Origin of measurements: patent US8293705B2
